result-type: melting point

>>> df
                 compound    result_type     data_value
0  Sc1nc(-c2ccccc2)c[nH]1  melting point  262 to 264 °C

Now turn to the next compound.
Asked: Reported melting point, compound NC(=O)c1ccccc1Oc1ncccc1C(=O)O : ____
Given back: 253 to 255 °C

---

result-type: melting point

Known results for molecules:
>>> print(df.to_string())
                                   molecule     data_value
0                     Cc1nccn1-c1ccc(CN)cn1    45 to 47 °C
1                         Cc1ccncc1-n1ccnc1    64 to 66 °C
2                 CCOC(=O)c1cn2c(Br)ccc2cn1  138 to 140 °C
3  Cc1ccc(S(=O)(=O)N2Cc3ccccc3CC2C(=O)O)cc1 (centres undefined)  143 to 145 °C
4                   Nc1cc(-c2ccc(F)cc2F)on1  122 to 124 °C

Asked: Entry CC(Cl)C(=O)NCc1ccc(Cl)cc1 (centres undefined) : reported melting point = ?
Given back: 100 to 102 °C

Asked: Query (molecule): Nc1ccccc1C(=O)NCCc1ccccc1 ; field requested: melting point
Given back: 110 to 112 °C

Asked: Name the reported melting point value associated with the molecule O=[N+]([O-])c1ccc(-c2c[nH]cn2)cc1
Given back: 224 to 226 °C

Asked: Request the reported melting point associated with O=Cc1sc(Nc2ccccc2)nc1Cl
Given back: 164 to 166 °C

Asked: // query melting point value for entry COc1ccc(C(N)CN2CCN(C)CC2)cc1 (centres undefined)
Given back: 82 to 84 °C

Asked: // melting point lookup, key: CCC1(CO)CCNCC1
Given back: 59 to 61 °C

Asked: Would you mind telling me what melting point value was observed for O=C1COc2cc(Br)ccc2N1 ?
Given back: 192 to 194 °C

Asked: Return reported melting point; argument: Cc1cccc(NC2=NC(=O)CS2)c1
Given back: 160 to 162 °C

Asked: Item NC(=O)CNC(=O)c1ccc(O)cc1 has what recorded melting point?
Given back: 264 to 266 °C

Asked: If you can, please state the reported melting point value of O=C(O)c1sc2cccc(Cl)c2c1Cl .
Given back: 273 to 275 °C

Asked: Which melting point value is on record for CS(=O)(=O)CBr ?
Given back: 34 to 36 °C

Asked: I have this molecule here, Cn1c(N)nc2c(F)cccc21 , and I need its recorded melting point.
Given back: 163 to 165 °C

Asked: Any idea what its melting point is? The molecule is CC(CCc1ccccc1)NS(=O)(=O)c1ccc(Cl)c(C(=O)O)c1 (centres undefined)
Given back: 94 to 96 °C

---

result-type: melting point

// known answers, use as guide
In [3]: df
Out[3]:
                                   compound     data_value
0  CCC(C)NS(=O)(=O)c1ccc(C(=O)O)cc1 (stereo not drawn)  219 to 221 °C
1          COC(=O)c1cc(=O)c2cc(Cl)ccc2[nH]1  179 to 181 °C
2                  CC(=CC(=O)O)c1ccc(F)cc1F  157 to 159 °C
3          O=C(O)CNC(=O)c1ccc(N2CCCC2=O)cc1  190 to 200 °C
4                 ClCc1cn(-c2ccc(Cl)cc2)nn1  139 to 141 °C

Asked: For Cc1ccc(Cc2nnc(N)s2)cc1 , what is its reported melting point?
Given back: 209 to 211 °C

Asked: Give the measured melting point of CN(C)C(=O)Cn1ccc(N)n1 .
Given back: 58 to 60 °C

Asked: Return reported melting point; argument: Clc1ccc(OCC2CO2)cc1 (stereo not drawn)
Given back: 31 to 33 °C

Asked: Which melting point is listed for Nc1ccc(O)cc1C(=O)NCc1ccccc1 ?
Given back: 154 to 156 °C

Asked: melting point for NC(=O)CCNc1cc(Cl)ncn1 ?
Given back: 165 to 167 °C

Asked: Suppose we examine the compound CCCCCc1sc(N)c(C(N)=O)c1C ; what melting point value has been reported?
Given back: 129 to 131 °C

Asked: # input compound: Nc1ccc(-c2cn3c(n2)CCCC3)cc1 ; wanted: its melting point
Given back: 209 to 211 °C

Asked: Query (compound): COCc1nc(Cl)cc(Cl)n1 ; field requested: melting point
Given back: 43 to 45 °C

Asked: # input compound: COC(=O)CN1Cc2ccccc2C1=O ; wanted: its melting point
Given back: 114 to 116 °C

Asked: Dear colleague, I am looking for the recorded melting point of the following compound: CCCCCCCCCCCC(=O)c1ccc(O)cc1
Given back: 71 to 73 °C

Asked: Could you share which melting point value was measured for O=C(O)c1ccccc1OCc1ccc(Cl)cc1Cl ?
Given back: 162 to 164 °C

Asked: Entry under review: Cc1ccc(OC(F)F)c(C(=O)CBr)c1 . Reported melting point?
Given back: 55 to 57 °C

Asked: GET /values?readout=melting point&item= CC(=O)NNC(=O)CCl
Given back: 157 to 159 °C

Asked: melting point lookup needed for CCOC(=O)c1sc(C(C)N)nc1C (stereo not drawn) , thanks.
Given back: 53 to 55 °C

Asked: Looking for the measured melting point of CC1(C)C(=O)NCCN1Cc1ccccc1 , can you help?
Given back: 212 to 214 °C
